# testSystem: Phosphodiesterase 4 (Homo sapiens, UniProt P27815+Q08499+Q07343+Q08493)
# methodDescription: Inhibitory potency against guinea pig ventricular phosphodiesterase 4
# Format: protein assay, Cavia porcellus
# details: target entry is the homologue from another species
endpointName: IC50 (µM)

                            structuresmiles  recordedresult
0  O=c1c2cn(CC3CCCCC3)c3ccccc3c-2nn1C1CCCC1             0.4

A: CCCCCn1nc2c3ccccc3n(Cc3ccccc3)cc-2c1=O
B: Cn1nc2c3ccccc3n(Cc3ccccc3)cc-2c1=O
C: CC(C)(C)n1nc2c3ccccc3n(CC3CCCCC3)cc-2c1=O
Task: Number of molecules to sort: 3. Sort criterion: IC50, ascending. Answer by writing out the labels in the requested order.
Output: C, A, B
(C: 0.5 µM, A: 6.4 µM, B: 14 µM)

----------
# testSystem: Phosphodiesterase 3 (Homo sapiens, UniProt Q14432+Q13370)
# methodDescription: Inhibitory potency against guinea pig ventricular phosphodiesterase 3
# Format: protein assay, Cavia porcellus
# details: target entry is the homologue from another species
endpointName: IC50 (µM)

Some molecules with known IC50 results, for comparison:
>>> print(df.to_string())
                            structuresmiles  recordedresult
0     CCCCn1nc2c3ccccc3n(CC3CCCCC3)cc-2c1=O             111
1  O=c1c2cn(Cc3ccccc3)c3ccccc3c-2nn1CC1CCCCC1             102

A: Cn1nc2c3ccccc3n(Cc3ccccc3)cc-2c1=O
B: CCCCn1nc2c3ccccc3n(Cc3ccccc3)cc-2c1=O
C: CCCCCn1nc2c3ccccc3n(Cc3ccccc3)cc-2c1=O
D: CCn1nc2c3ccccc3n(Cc3ccccc3)cc-2c1=O
Task: Number of molecules to sort: 4. Sort criterion: IC50, ascending. Answer by writing out the labels in the requested order.
Output: D, B, A, C

P: CCCCn1nc2c3ccccc3n(-c3ccccc3)cc-2c1=O
Q: CCCCn1[nH]c2c(cnc3ccccc32)c1=O
R: O=c1c2cn(Cc3ccccc3)c3ccccc3c-2nn1C1CCCC1
Task: Rank the 3 molecules: largest IC50 first, smallest last. Answer by writing out the labels in the requested order.
Output: Q, P, R

P: CC(C)n1nc2c3ccccc3n(Cc3ccccc3)cc-2c1=O
Q: O=c1[nH]nc2c3ccccc3n(Cc3ccccc3)cc1-2
Task: Pick one: P or Q . Which has the bigger IC50 number? Please respond with the label that marks your chosen entry.
Output: P

----------
# testSystem: Phosphodiesterase 4 (Homo sapiens, UniProt P27815+Q08499+Q07343+Q08493)
# methodDescription: Inhibitory potency against guinea pig ventricular phosphodiesterase 4
# Assay type: protein assay, Cavia porcellus
# details: target entry is the homologue from another species
endpointName: IC50 (nM)

>>> print(df.to_string())
                                compound  recordedresult
0  CCCCn1nc2c3ccccc3n(CC3CCCCC3)cc-2c1=O             700

A: O=c1c2cn(Cc3ccccc3)c3ccccc3c-2nn1CC1CCC1
B: CCn1nc2c3ccccc3n(Cc3ccccc3)cc-2c1=O
C: CCCCn1nc2c3ccccc3n(Cc3ccccc3)cc-2c1=O
D: CC(C)n1nc2c3ccccc3n(Cc3ccccc3)cc-2c1=O
E: CCCCn1nc2c3ccccc3n(CCc3ccccc3)cc-2c1=O
Task: Rank the 5 compounds: largest IC50 first, smallest last. Answer by writing out the labels in the requested order.
Output: E, B, C, D, A

A: O=c1c2cn(Cc3ccccc3)c3ccccc3c-2nn1CCc1ccccc1
B: CCCCn1nc2c3ccccc3n(Cc3cccs3)cc-2c1=O
Task: Pick one: A or B . Which has the bigger IC50 number? Please respond with the label that marks your chosen entry.
Output: A
(A: 10000 nM, B: 2700 nM)

A: CCCCn1nc2c3ccccc3n(-c3ccccc3)cc-2c1=O
B: CCCCn1[nH]c2c(cnc3ccccc32)c1=O
Task: Pick one: A or B . Which has the bigger IC50 number? Please respond with the label that marks your chosen entry.
Output: B
(B: 90000 nM, A: 18000 nM)

I: CCn1c(=O)c2ccccc2n(-c2cccc([N+](=O)[O-])c2)c1=O [NITRAQUAZONE]
II: O=c1c2cn(Cc3ccccc3)c3ccccc3c-2nn1C1CCCC1
Task: Which has the smaller recorded IC50, I or II ? Please respond with the label that marks your chosen entry.
Output: I
(I: 50 nM, II: 700 nM)
